- MEASURED ON: T1, human glypican-3 (GPC3) (human, UniProt P51654 25-554)
- T1 construct: Endogenous on JHH-7, JHH-5, HepG2 and NCI-H446 tumour cells, or transiently expressed on CHO-S cells from a pTT5 plasmid; also called hGPC3; huGPC3
- ASSAY: flow cytometry on JHH-7 cells (GPC3-high);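 also: antibody binding at 4 °C for 24 h, detected with anti-human AF647 secondary, geometric mean fluorescence of live cells versus antibody concentration, fitted as specific binding with Hill slope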
QUANTITY KIND: Bmax (MFI)
Numeric answer only, unit MFI assumed.

Item under review: H18L6_LC_G34A mAb, v40212 (antibody, human IgG1, kappa, V domains shown, M3-H18L6 chains with the stated light chain point mutation, IgG1/kappa) VH: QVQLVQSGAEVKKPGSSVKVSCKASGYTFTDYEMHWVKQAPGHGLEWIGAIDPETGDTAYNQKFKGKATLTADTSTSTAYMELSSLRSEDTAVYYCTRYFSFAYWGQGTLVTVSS VL: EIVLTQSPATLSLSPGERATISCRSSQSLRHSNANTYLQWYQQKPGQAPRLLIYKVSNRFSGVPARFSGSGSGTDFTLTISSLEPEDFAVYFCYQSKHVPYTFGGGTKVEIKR . Reported Bmax (MFI)? 13300

# query: Bmax (MFI) of entry H18L6_LC_N33V mAb, v40215 (antibody, human IgG1, kappa, V domains shown, M3-H18L6 chains with the stated light chain point mutation, IgG1/kappa) VH: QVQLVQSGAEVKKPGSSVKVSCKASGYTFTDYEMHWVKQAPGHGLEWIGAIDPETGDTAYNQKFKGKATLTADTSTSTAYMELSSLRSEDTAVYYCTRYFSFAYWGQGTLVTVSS VL: EIVLTQSPATLSLSPGERATISCRSSQSLRHSVGNTYLQWYQQKPGQAPRLLIYKVSNRFSGVPARFSGSGSGTDFTLTISSLEPEDFAVYFCYQSKHVPYTFGGGTKVEIKR 9540

Fill in the blank: the reported Bmax (MFI) of H18L6_LC_G34S mAb, v40210 (antibody, human IgG1, kappa, V domains shown, M3-H18L6 chains with the stated light chain point mutation, IgG1/kappa) VH: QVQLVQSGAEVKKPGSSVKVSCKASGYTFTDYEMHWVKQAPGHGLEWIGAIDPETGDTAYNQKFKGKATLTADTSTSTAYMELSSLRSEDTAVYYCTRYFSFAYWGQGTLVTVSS VL: EIVLTQSPATLSLSPGERATISCRSSQSLRHSNSNTYLQWYQQKPGQAPRLLIYKVSNRFSGVPARFSGSGSGTDFTLTISSLEPEDFAVYFCYQSKHVPYTFGGGTKVEIKR is ____. 10600
